Task for the reader: assign each of the following molecules its reported cytotoxicity at 10 µM.
assay: Toxicity liver stage against HepG2, at 10uM; assay type: cell-based; set-up: test concentration 10 uM, cell line HepG2-A16-CD81EGFP; details: human, HepG2-A16-CD81EGFP cells; read-out: INHIBITION
I only need the number, in %, no unit after it.

Record Cc1ncsc1C(=O)N1CCCC1c1c(C)nn(C)c1Cl (stereo unspecified) . Reported cytotoxicity at 10 µM: -1.9

`Cc1ccc(C(=O)NCc2cccnc2-n2cncn2)cc1S(C)(=O)=O` yielded cytotoxicity at 10 µM of 4.5

Quick note, cytotoxicity at 10 µM for COC(=O)c1ccc(OC)c(CN2CCN(CC(C)C)C(=O)C2C)c1 (stereo unspecified) landed at -20.3

// recorded cytotoxicity at 10 µM for `CN(Cc1ccsc1)Cc1nc(-c2ccncc2)no1` : 1.93

Value of cytotoxicity at 10 µM reported for the molecule CC(C)C1SCC(=O)Nc2c1cnn2-c1ccc(Cl)cc1F (stereo unspecified) is 17.2

Sample COCC1CCCN(C(=O)c2ccc(NC(=O)CC(C)C)c(C)c2)C1 (stereo unspecified) ; cytotoxicity at 10 µM observed: -5.76

Per the record, COCC(c1cccc(C(F)(F)F)c1)N(C)C(=O)c1ccoc1 (stereo unspecified) has cytotoxicity at 10 µM of -3.84

The recorded cytotoxicity at 10 µM for c1cnc(N2CCC3(CC2)CC(NCC2CC2)c2ccccc23)nc1 (stereo unspecified) is 22.4

// recorded cytotoxicity at 10 µM for CCC(C)[C@H](N)c1nnc(SCC(=O)Nc2cc(C)ccc2C)o1 (stereo partly specified) : -12.7

Briefly, cytotoxicity at 10 µM measured for `CN1CCN(C(=O)CCC(=O)c2cccs2)Cc2ccccc21` : -57.8

molecule `Cc1nnsc1CN1C[C@@H]2CC[C@H]1CN(Cc1ccccc1)C2` , cytotoxicity at 10 µM observed: 0.929

Form: molecule = `Cc1ccc(CN2CC[C@@H]3O[C@@H](C(=O)N4CCN(C)CC4)C[C@@H]32)cc1` ; cytotoxicity at 10 µM = -3.62

Short answer for COC(=O)c1sc2cccc(F)c2c1CNC(=O)C1CCOC1 (stereo unspecified) : cytotoxicity at 10 µM was 8.97

Quick note, cytotoxicity at 10 µM for `CCC(C)(C)NC(=O)CN1C=Nc2ccccc2S1(=O)=O` landed at -4.47

cytotoxicity at 10 µM reported for this molecule `Cc1ccc(S(=O)(=O)N2CC[C@H]3CO[C@H](CN(C)C)[C@H]3C2)cc1` : -98.3

Reported cytotoxicity at 10 µM for CNS(=O)(=O)C1CCN(c2cc(C(C)C)nc(C(C)C)n2)C1 (stereo unspecified) was -3.33

# cytotoxicity at 10 µM (molecule: Cc1cc(C)nc(C2CCN(C(=O)CCn3ncc4ccccc43)C2)n1 (stereo unspecified) ) is -17.3

Consider Cc1csc2c(=O)n(C(C)Cc3cccnc3)cnc12 (stereo unspecified) . Its measured cytotoxicity at 10 µM is 9.98

cytotoxicity at 10 µM recorded for this molecule, CCc1nc(C2CCCN(C(=O)c3ccc4[nH]cnc4c3)C2)no1 (stereo unspecified) , is 1.48

Lookup result for `Cc1nn(C)c(N(C)C)c1CNCCC(=O)NC1CCCC1` ; measured cytotoxicity at 10 µM: -3.37

The recorded cytotoxicity at 10 µM for `O=C1CC[C@@H]2[C@@H](CCN2C(=O)c2ccsc2)N1CC1CC1` is -10.9

Reported cytotoxicity at 10 µM of CC(C)c1cc(N2CCC(N(C)C)C2)n2nccc2n1 (stereo unspecified) : -0.869

Recorded result, Cc1nc(CN2CCN(C(C)c3nc(C4CC4)no3)CC2)no1 (stereo unspecified) , cytotoxicity at 10 µM: -6.34

For `CCCNC(=O)Nc1ccn(CCCOC)n1` the molecule record lists cytotoxicity at 10 µM as -2.11

The molecule listed as `COc1cccc2cc(CNC(=O)N3CCOC(C)(C)C3)oc12` has a reported cytotoxicity at 10 µM of -14.8

response.value for CN(CC(=O)N1CCCCC1Cn1cccn1)C1CC1 (stereo unspecified) (field: cytotoxicity at 10 µM) = -3.45

Sample `O=C(COCc1nc(-c2ccncc2)no1)N1CCCCCC1` ; cytotoxicity at 10 µM observed: -8.83

The molecule listed as CCCS(=O)(=O)CC(=O)N1CCCC1c1noc(C2CC2)n1 (stereo unspecified) shows cytotoxicity at 10 µM equal to 3.34

According to the records, this molecule `NC(=O)N1CCc2ncc(CNC(=O)CC3CC3)n2CC1` displays cytotoxicity at 10 µM of 2.11

Lab book: cytotoxicity at 10 µM of CN(C)CCNC(=O)C1Cc2nc(-c3ccsc3)sc2N1CC1CC1 (stereo unspecified) noted as 3.54

The molecule O=C1CC(c2cccnc2)c2c(sc3c2CCCC3)N1 (stereo unspecified) showed cytotoxicity at 10 µM equal to 8.75

Summary for this molecule, `Fc1cc(CNCCn2cccn2)ccc1-n1cncn1` : cytotoxicity at 10 µM is -11.1

cytotoxicity at 10 µM for `COCCN(C)C[C@@H]1CN(C(=O)c2ccc(C)cc2)C[C@@H]1CO` is -9.21

Reported cytotoxicity at 10 µM of `O=C(c1cnc2c(cnn2C2CCCC2)c1)N1CCCSCC1` : -9.3

# cytotoxicity at 10 µM (molecule: COCCCN(Cc1ccccc1Cl)C1CCS(=O)(=O)C1 (stereo unspecified) ) is 17.1

Consider `NC(=O)Cn1c(CO)cnc1SCC(=O)NCc1ccccc1Cl` . Its measured cytotoxicity at 10 µM is -4.24

Origin of values: ChEMBL document CHEMBL4513216
